Origin of values: PubChem BioAssay (NCI)

Tested on: COLO 205 colon
Method Summary: NCI tumour cell line growth inhibition, 48 h
For each record, write down the corresponding TGI.
Give just the numeric value; µM need not be written.

Incoming: Suppose we examine the compound C#CC[C@@H]1C[C@]2(C)[C@H]3CC=C4[C@H]5CC(C)(C)CC[C@]5(C(=O)NCCCCN)CC[C@@]4(C)[C@]3(C)CC[C@H]2C(C)(C)[C@H]1OC(C)=O ; what TGI value has been reported?
Outgoing: 3.32

Incoming: C=C1C(=O)O[C@H]2[C@H]1CC/C(COC(=O)N1CCC[C@H]1C(=O)Nc1ccc(OC)c(C(N)=O)c1O)=C\CC[C@@]1(C)O[C@@H]21 ?
Outgoing: 3.28

Incoming: C=C1CC[C@@H]2[C@](C)(COC(C)=O)[C@H](OC(C)=O)CC[C@@]2(C)[C@@H]1CC(Nc1ccc(S(=O)(=O)Nc2nccc(C)n2)cc1)C1=CCOC1=O (stereo not given in full) ?
Outgoing: 4.66

Incoming: COc1ccc(-c2cn(-c3ccccc3)c(-c3ccccc3)n2)cc1OC ?
Outgoing: 12.3

Incoming: CN(C)CCOc1ccc2c(c1)C/C(=C/c1ncc([N+](=O)[O-])n1C)C2=O ?
Outgoing: 3.33

Incoming: CC(=O)NC1=C(C)C(=O)c2c(nc3n2CCC3O)C1=N (stereo not given) ?
Outgoing: 33.4

Incoming: COc1ccc2oc3cccc(NCCN(C)C)c3c(=O)c2c1 ?
Outgoing: 19.1

Incoming: OC1COC(n2c3ccc(Br)cc3c3ccc4c5ccccc5[nH]c4c32)C(O)C1O (stereo not given) ?
Outgoing: 3.65

Incoming: CN(C)c1ccc2cc(-c3ccccc3F)c(N)nc2c1 ?
Outgoing: 6.35

Incoming: C[C@@H]1CN(CC(=O)N2CC(C)(C)c3nc(CO)c(Cc4ccc(F)cc4)cc32)[C@@H](CN2CCOC[C@H]2C)CN1 ?
Outgoing: 41.4

Incoming: ClCc1c(Cl)c(Cl)c(Cl)c(CCl)c1Cl ?
Outgoing: 3.33

----------
Test system: SF-268 CNS
Method Summary: NCI tumour cell line growth inhibition, 48 h
Property Name: TGI

Incoming: Suppose we examine the compound Cn1c(-c2ccc(/C=N\N3CCN(/N=C/c4ccc(-c5c[n+]6ccccc6n5C)cc4)CC3)cc2)c[n+]2ccccc12 ; what TGI value has been reported?
Outgoing: > 100 µM

Incoming: Cc1ccc(NC(=O)/C(=N\Nc2ccc([N+](=O)[O-])cc2[N+](=O)[O-])C2C(=O)NC(=O)NC2=O)cc1 ?
Outgoing: > 100 µM

Incoming: N#Cc1ccc(OCc2nc3cc(C(F)(F)F)ccc3nc2-c2ccccc2)cc1 ?
Outgoing: > 100 µM

Incoming: COC(=O)/N=[N+](\[O-])C(c1ccc(OC)cc1)C1CCCCC1 (stereo not given) ?
Outgoing: 37.9 µM

Incoming: CCOC(=O)CCC(NC(=O)c1ccc(N2CCN(c3c(C)nc(N)nc3N)CC2)cc1)C(=O)OCC (stereo not given) ?
Outgoing: > 100 µM

Incoming: Cc1ccc2c(n1)C(=O)c1ccccc1C2=O ?
Outgoing: > 100 µM

Incoming: COc1ccc2c(c1)OC(N(C(C)=O)C(C)=O)=C(C#N)C2c1ccc(F)cc1 (stereo not given) ?
Outgoing: > 100 µM

Incoming: CC(=O)[O-].CC(=O)[O-].[NH2-].[Pt+2].c1ccc2cnccc2c1 ?
Outgoing: > 100 µM

Incoming: N#C/C(=C\c1cccc(O)c1)C(N)=O ?
Outgoing: > 100 µM

Incoming: COc1cc2c(cc1OC)CC(N=[N+]=[N-])c1cc(OC)c(OC)cc1/C=C\2 (stereo not given) ?
Outgoing: > 100 µM

Incoming: CC(=O)O[C@@H]1CC2C(C)(C)CCCC2(C)C2=C1C(=O)C(C(C)C)=CC2=O (stereo not given in full) ?
Outgoing: 38.1 µM

Incoming: CN(CCc1ccc(N)cc1)[C@H]1CCCC[C@H]1N1CCCC1 ?
Outgoing: > 100 µM

Incoming: C=C1CC[C@@H]2[C@](C)(COC(C)=O)[C@H](OC(C)=O)CC[C@@]2(C)[C@@H]1CC(Nc1ccc(S(=O)(=O)Nc2nccc(C)n2)cc1)C1=CCOC1=O (stereo not given in full) ?
Outgoing: 20.9 µM

Incoming: S=c1[nH]c2ccc(Br)cc2c(=S)n1-c1ccccc1 ?
Outgoing: > 100 µM

Incoming: O=S1C2=C(Cc3ccccc3)C(Cc3ccccc3)=C1CCc1cccc(c1)CC2 ?
Outgoing: 31.8 µM

Incoming: Cn1nc(-c2ccccc2)c(C(=O)/C=C/c2ccccc2)c(N2CCOCC2)c1=O ?
Outgoing: 32.6 µM

Incoming: CCC(C)C(=O)c1c(O)c(C/C=C(\C)CCC=C(C)C)c(O)c2c(C(O)CC)cc(=O)oc12 (stereo not given) ?
Outgoing: 10.8 µM

Incoming: CCCCOC(=O)C(O)Cc1ccoc1 (stereo not given) ?
Outgoing: > 100 µM

Incoming: Brc1ccc2[nH]cc(-c3nc(-c4c[nH]c5ccccc45)cs3)c2c1 ?
Outgoing: 11.4 µM

Incoming: COc1cc[nH]c1/C=C1\C(=O)Nc2ccc(F)c(I)c21 ?
Outgoing: > 25 µM

Incoming: CC(C)NC(=O)OCCS(=O)c1c(Cl)c(Cl)nn1C (stereo not given) ?
Outgoing: > 100 µM

Incoming: CCCCCCCCCCCCCCCC(=O)OCC1OC(n2c(O)c(N=NC(N)=S)c3ccc([N+](=O)[O-])cc32)C(OC(C)=O)C1OC(C)=O (stereo not given) ?
Outgoing: > 100 µM

Incoming: CC1=C(O)C(=O)C2C(=O)C1C(C)C2c1ccc(Cl)cc1 (stereo not given) ?
Outgoing: > 100 µM

Incoming: Cc1cc(=O)oc2cc3c(cc12)Oc1ccccc1O3 ?
Outgoing: > 100 µM

Incoming: Cc1cccc2c1NC(=S)[C@@H]1CCCN1C2=O ?
Outgoing: > 100 µM

Incoming: O=C(O)c1cc(=O)c2[nH]c3ccccc3c2s1 ?
Outgoing: > 100 µM

Incoming: Cc1ccc(Nc2cc(=O)[nH]c(=S)[nH]2)cc1 ?
Outgoing: > 100 µM

Incoming: CN(C)c1ccc2cc(-c3ccccc3F)c(N)nc2c1 ?
Outgoing: 19.8 µM

Incoming: CCOC(=O)/C=C(\C)c1ccc(OC)cc1 ?
Outgoing: > 100 µM

Incoming: C=C1C(=O)OC2C1CC(O)/C(C)=C\CCC1(C)OC21 (stereo not given) ?
Outgoing: 86.6 µM

Incoming: CCC(CCCC[C@@H]1CC[C@H]2CC(=O)C[C@@H]12)OC (stereo not given in full) ?
Outgoing: > 100 µM

Incoming: COc1cc(CNc2ccc(C(C)C)cc2)cc(OC)c1OC ?
Outgoing: > 100 µM

Incoming: CC[n+]1c(/C=C/c2ccc(N(CCCl)CCCl)cc2)ccc2cc(NC(=O)/C=C/c3ccccc3)ccc21 ?
Outgoing: 1.96 µM

Incoming: CC[C@H](CC#N)OC(=O)N[C@@H](C)c1cccc(NC(=O)Nc2ccc(-c3cnco3)c(OC)c2)c1 ?
Outgoing: 51.3 µM

Incoming: Cc1cccc(C(C)C)c1NC(=O)C(=O)CC(=O)c1c(C)n([O-])c2ccccc2[n+]1=O ?
Outgoing: > 100 µM

Incoming: C=CC[C@H]1[C@H](O[Si](C)(C)C(C)(C)C)C=CC(=O)[C@@H]1CC(=O)N(Cc1ccccc1)Cc1ccccc1 ?
Outgoing: 93.4 µM

Incoming: COc1cccc(C2c3cc4c(cc3OC(O)(CO)C2C(=O)O)OCO4)c1 (stereo not given) (tested in a mixture with another compound) ?
Outgoing: > 100 µM

Incoming: COc1cc(COC(=O)N2CCC2C(=O)O)c([N+](=O)[O-])cc1OC (stereo not given) ?
Outgoing: > 100 µM

Incoming: CC1(C)N=C(N)N=C(N)N1c1cccc(OCCOc2ccc([N+](=O)[O-])cc2)c1 ?
Outgoing: > 100 µM

Incoming: CC(=O)Oc1ccc(O)c(O)c1C/C=C(\C)CC/C=C(\C)CC/C=C(\C)CCC=C(C)C ?
Outgoing: 2.18 µM
